The values you see were collected from the supplement of paper PMC11451515.

Recorded cell viability values for a group of compounds are listed next.
- System: SEM cells
- procedure_summary: cell viability relative to DMSO control; higher = less cytotoxic
- condition_context: RPMI 5 mM glucose + 10% dialyzed FBS; 48 h; 0.00234 µM

# compound, cell viability
records = [
    ("N\\C1=N\\C2=C(N=C[N]2COCCO)C(=O)N1", "93.9%"),
    ("CCOC(=O)N1c2ccc(C(F)(F)F)cc2[C@@H](N(Cc2cc(C(F)(F)F)cc(C(F)(F)F)c2)C(=O)OC)C[C@H]1CC", "108%"),
    ("O=C/1NC(=O)C(=C1C2=CN=C3C=CC=C[N]23)/C4=C[N]5CCN(CC6=C5C4=CC=C6)C(=O)N7CCOCC7", "102%"),
    ("NC(=O)Nc1sc(-c2ccc(F)cc2)cc1C(N)=O", "116%"),
    ("CC(=O)N[C@@H]1[C@@H](NC(N)=N)\\C=C(/O[C@H]1[C@H](O)[C@H](O)CO)C(O)=O", "82.9%"),
    ("CC1(CN2CCC(n3c(=O)[nH]c4ccccc43)CC2)OCc2ccccc2-n2cccc21 (stereo unspecified)", "81.4%"),
]

====

# Lookup of reported cell viability keyed by entry
- Test system: P12-Ichikawa
- procedure_summary: cell viability relative to DMSO control; higher = less cytotoxic
- condition_context: RPMI 5 mM glucose + 10% dialyzed FBS; 48 h; 5.12 µM

# record_smiles, cell viability
data = [
    ("Cc1c(-c2cccc3c(CCCOc4cccc5ccccc45)c(C(=O)O)n(Cc4cccnc4)c23)c(COc2ccc(N3CCN([S+](=O)([O-])N(C)C)CC3)cc2)nn1C", "81.3%"),
    ("CN1CCN(c2c(F)cc3c(=O)c(C(=O)O)cn(CCF)c3c2F)CC1", "119%"),
    ("COc1cc(Nc2c(C#N)cnc3cc(OCCCN4CCN(C)CC4)c(OC)cc23)c(Cl)cc1Cl", "64.5%"),
    ("O=C([O-])C[C@H](O)C[C@H](O)/C=C/c1c(C2CC2)nc2ccccc2c1-c1ccc(F)cc1", "58.2%"),
]

====

- System: NOMO1
- procedure_summary: cell viability relative to DMSO control; higher = less cytotoxic
- condition_context: HPLM + 10% dialyzed FBS; 48 h; 0.000781 µM
# cell viability per entry

# compound, cell viability, %
data = [
    ("C[C@H]1C[C@H]2[C@@H]3CC[C@](O)(C(=O)CO)[C@@]3(C)C[C@H](O)[C@@H]2[C@@]\\4(C)/C=C\\C(=O)\\C=C14", 82.1),
    ("CC\\12CCC(=O)\\C=C1CCC3C2CCC4(C)C3CCC4(O)C#C (centres undefined)", 98.9),
    ("OC1=CC2=C(C=C1)C(=O)\\C(=C(O2)\\C3=CC(=C(O)C=C3)O)O", 105),
    ("O=C(CC12CC3CC(CC(C3)C1)C2)Nc1cccc2nc(NCCNCCO)ccc12", 79.1),
    ("CC(=O)N[C@@H]1[C@@H](NC(N)=N)\\C=C(/O[C@H]1[C@H](O)[C@H](O)CO)C(O)=O", 84.9),
    ("Cc1nn(C)c(COc2ccc(N3CCN([S+](=O)([O-])N(C)C)CC3)cc2)c1-c1cccc2c(CCCOc3cccc4ccccc34)c(C(=O)O)n(CCN3CCOCC3)c12", 96.9),
    ("CC(C)=CCC/C(C)=C/CC/C(C)=C/CSc1ccccc1C(=O)O", 93.2),
    ("CCOC(=O)C(C#N)C\\1C2=CC(=CC=C2O\\C(=C1C(=O)OCC)N)Br (centres undefined)", 113),
    ("CC(C)(S)[C@@H](N)C(=O)O", 111),
    ("CC(C)=CCC/C(C)=C/CC/C(C)=C/CC/C(C)=C/CC/C(C)=C/CC/C(C)=C/CC/C(C)=C/CC/C(C)=C/CC/C(C)=C/CO", 117),
    ("CCCC(C)(COC(N)=O)COC(=O)NC(C)C (centres undefined)", 107),
    ("O=[N+]([O-])c1ncc[nH]1", 90.7),
    ("CC(=O)OC[C@H]1O[C@@H]([S-])[C@H](OC(C)=O)[C@@H](OC(C)=O)[C@@H]1OC(C)=O.CCP(CC)CC.[Au+]", 80.7),
    ("CC(C)(F)C[C@H](N[C@@H](c1ccc(-c2ccc([S+](C)(=O)[O-])cc2)cc1)C(F)(F)F)C(=O)NC1(C#N)CC1", 91.5),
    ("C[C@H](CCC(=O)O)[C@H]1CCC2C3C[C@H](O)[C@@H]4C[C@H](O)CC[C@]4(C)C3CC[C@@]21C (some centres undefined)", 112),
    ("Cc1ccc(C(=O)Nc2cccc(C(F)(F)F)c2)cc1-c1ccc2nc(NCCN3CCOCC3)ncc2c1", 128),
    ("Cc1ccc([N+](=O)[O-])cc1[S+](=O)([O-])N(C)/N=C/c1cnc2ccc(Br)cn12", 110),
    ("N[S+](=O)([O-])c1cc2c(cc1Cl)NC(C(Cl)Cl)N[S+]2(=O)[O-] (centres undefined)", 96.9),
    ("CCOC(=O)N1c2ccc(C(F)(F)F)cc2[C@@H](N(Cc2cc(C(F)(F)F)cc(C(F)(F)F)c2)C(=O)OC)C[C@H]1CC", 124),
    ("C[C@@H]1CN(Cc2ccc(F)cc2)[C@@H](C)CN1C(=O)c1cc2c(C(=O)C(=O)N(C)C)cn(C)c2cc1Cl", 103),
    ("O=C(Nc1c[nH]nc1-c1nc2cc(CN3CCOCC3)ccc2[nH]1)NC1CC1", 91.3),
    ("Cc1cc(OCCC[S+](C)(=O)[O-])cc(C)c1-c1cccc(COc2ccc3c(c2)OC[C@H]3CC(=O)O)c1", 93.7),
    ("O=C1\\C=C/C=C2/[C@H]3CNC[C@H](C3)CN12", 112),
    ("CN(C)C1=CC(=CC=C1)C\\2=C\\3C(=O)N(NC3=C/C(=O)N2C)C4=CC=CC=C4Cl", 113),
]
